molecular target: ABCD2 WT (Homo sapiens, UniProt Q9UBJ2); assay: D2 correction dose-response assay: ABCD2 WT HiBit protein expression; details: HEK-293/ABCD2 WT cells, 24 hours treatment, HiBit luminescence; class combines EC50 and Mean MaxAct (fold); read-out: ABCD2 WT EC50, Emax
PARAMETER: EC50

{"COMPOUND": "Cc1nc(C(F)(F)F)nc(C2CC2)c1Oc1nc(-c2cncc(C#N)c2)ccc1N(C)S(C)(=O)=O [Compound I-142]", "TARGET_UNDER_TEST": "ABCD2 WT (Homo sapiens, UniProt Q9UBJ2)", "EC50": "1 to 10 µM"}
{"COMPOUND": "Cc1cc(C)c(Oc2nc(-c3cncc(Cl)c3)ccc2NS(=O)(=O)C2COC2)c(C)c1 [Compound I-41]", "TARGET_UNDER_TEST": "ABCD2 WT (Homo sapiens, UniProt Q9UBJ2)", "EC50": "< 1 µM"}
{"COMPOUND": "Cc1cc(C(F)(F)F)nc(C2CC2)c1Oc1nc(-c2cncc(Cl)c2)ccc1N(C)S(C)(=O)=O [Compound I-153]", "TARGET_UNDER_TEST": "ABCD2 WT (Homo sapiens, UniProt Q9UBJ2)", "EC50": "1 to 10 µM"}
{"COMPOUND": "Cc1cc(C)c(Oc2nc(-c3cncc(C#N)c3)ncc2NS(C)(=O)=O)c(C)c1 [Compound I-10]", "TARGET_UNDER_TEST": "ABCD2 WT (Homo sapiens, UniProt Q9UBJ2)", "EC50": "< 1 µM"}
{"COMPOUND": "Cc1cc(C)c(Oc2nc(-c3cncc(C#N)c3)ccc2NS(C)(=O)=O)c(C2CC2)n1 [Compound I-268]", "TARGET_UNDER_TEST": "ABCD2 WT (Homo sapiens, UniProt Q9UBJ2)", "EC50": "> 25 µM"}
{"COMPOUND": "Cc1nc(C(F)(F)F)nc(C2CC2)c1Oc1nc(-c2cncc(C#N)c2)ccc1S(=O)(=O)Nc1cccnc1 [Compound I-310]", "TARGET_UNDER_TEST": "ABCD2 WT (Homo sapiens, UniProt Q9UBJ2)", "EC50": "1 to 10 µM"}
{"COMPOUND": "Cc1nc(N2CC(S(C)(=O)=O)C2)nc(C)c1Oc1nc(-c2cncc(C#N)c2)ccc1NS(C)(=O)=O [Compound I-169]", "TARGET_UNDER_TEST": "ABCD2 WT (Homo sapiens, UniProt Q9UBJ2)", "EC50": "10 to 25 µM"}
{"COMPOUND": "Cc1cc(C)c(Oc2nc(-c3cncc(C#N)c3)ccc2NS(=O)(=O)C2COC2)c(C)n1 [Compound I-228]", "TARGET_UNDER_TEST": "ABCD2 WT (Homo sapiens, UniProt Q9UBJ2)", "EC50": "1 to 10 µM"}
{"COMPOUND": "Cc1nc(C(F)(F)F)nc(C2CC2)c1Oc1nc(-c2cncc(Cl)c2)ccc1NS(C)(=O)=O [Compound I-151]", "TARGET_UNDER_TEST": "ABCD2 WT (Homo sapiens, UniProt Q9UBJ2)", "EC50": "< 1 µM"}
{"COMPOUND": "Cc1cc(C(F)(F)F)nc(C2CC2)c1Oc1nc(-c2cncc(C#N)c2)ccc1S(=O)(=O)N1CCOCC1 [Compound I-290]", "TARGET_UNDER_TEST": "ABCD2 WT (Homo sapiens, UniProt Q9UBJ2)", "EC50": "> 25 µM"}

Recorded EC50 (compound CNS(=O)(=O)c1ccc(-c2cncc(Cl)c2)nc1Oc1c(C)cc(C)cc1C [Compound I-95] ): < 1 µM

Query Cc1nc(C)c(C(F)(F)F)cc1Oc1nc(-c2cncc(C#N)c2)ccc1NS(C)(=O)=O [Compound I-225] yields EC50 of < 1 µM

GET /value?item= Cc1cc(C)c(Oc2nc(-c3cnn(C)c3C)ccc2NS(C)(=O)=O)c(C)c1 [Compound I-13] &field=EC50 returns > 25 µM

# compound Cc1cc(Oc2nc(-c3cncc(C#N)c3)ccc2NS(C)(=O)=O)c(C)nc1C1CC1 [Compound I-127] ; its EC50 = > 25 µM

----------
Biological target: ABCD2 WT (Homo sapiens, UniProt Q9UBJ2)
Sequence (Q9UBJ2 1-740): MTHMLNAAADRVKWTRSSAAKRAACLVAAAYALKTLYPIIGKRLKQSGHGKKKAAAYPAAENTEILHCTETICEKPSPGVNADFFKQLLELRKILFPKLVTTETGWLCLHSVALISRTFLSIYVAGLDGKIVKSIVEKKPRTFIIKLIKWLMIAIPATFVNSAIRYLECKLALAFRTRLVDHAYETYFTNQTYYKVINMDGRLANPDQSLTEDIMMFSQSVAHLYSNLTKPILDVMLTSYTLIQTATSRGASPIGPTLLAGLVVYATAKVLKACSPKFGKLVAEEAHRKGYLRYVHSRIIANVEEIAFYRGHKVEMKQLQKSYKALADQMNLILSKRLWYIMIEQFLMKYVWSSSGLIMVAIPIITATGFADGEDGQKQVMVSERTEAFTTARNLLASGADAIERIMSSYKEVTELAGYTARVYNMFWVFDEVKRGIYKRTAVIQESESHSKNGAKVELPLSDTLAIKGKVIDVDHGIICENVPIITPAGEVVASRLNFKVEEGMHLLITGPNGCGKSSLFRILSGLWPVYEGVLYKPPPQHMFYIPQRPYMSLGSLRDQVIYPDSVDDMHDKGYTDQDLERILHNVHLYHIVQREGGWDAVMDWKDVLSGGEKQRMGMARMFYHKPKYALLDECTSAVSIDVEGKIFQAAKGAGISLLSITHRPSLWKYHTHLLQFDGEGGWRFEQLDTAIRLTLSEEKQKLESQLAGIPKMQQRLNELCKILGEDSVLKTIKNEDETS
Assay: D2 correction dose-response assay: ABCD2 WT HiBit protein expression
Conditions: HEK-293/ABCD2 WT cells, 24 hours treatment, HiBit luminescence; class combines EC50 and Mean MaxAct (fold); read-out: ABCD2 WT EC50, Emax
PARAMETER: EC50

{"MOLECULE": "Cc1cc(C)c(Oc2nc(-c3cncc(N4CC(F)(F)C4)c3)ccc2NS(C)(=O)=O)c(C)n1 [Compound I-195]", "RESULT": "> 25000 nM"}

Consider the additional molecule presented here.
Lab note: measured EC50 of Cc1nc(C)c(Oc2nc(-c3cncc(Cl)c3)ccc2NS(C)(=O)=O)c(C2CC2)n1 [Compound I-164] was 1000 to 10000 nM

----------
target: ABCC6 WT (Homo sapiens); assay: ABCC6 WT assay: HiBit protein expression; details: HEK-293 cells transiently expressing HiBit-tagged ABCC6 WT; 24 h treatment; top concentration 20 μM; read-out: ABCC6 WT EC50, Emax
Sequence (O95255 whole entry): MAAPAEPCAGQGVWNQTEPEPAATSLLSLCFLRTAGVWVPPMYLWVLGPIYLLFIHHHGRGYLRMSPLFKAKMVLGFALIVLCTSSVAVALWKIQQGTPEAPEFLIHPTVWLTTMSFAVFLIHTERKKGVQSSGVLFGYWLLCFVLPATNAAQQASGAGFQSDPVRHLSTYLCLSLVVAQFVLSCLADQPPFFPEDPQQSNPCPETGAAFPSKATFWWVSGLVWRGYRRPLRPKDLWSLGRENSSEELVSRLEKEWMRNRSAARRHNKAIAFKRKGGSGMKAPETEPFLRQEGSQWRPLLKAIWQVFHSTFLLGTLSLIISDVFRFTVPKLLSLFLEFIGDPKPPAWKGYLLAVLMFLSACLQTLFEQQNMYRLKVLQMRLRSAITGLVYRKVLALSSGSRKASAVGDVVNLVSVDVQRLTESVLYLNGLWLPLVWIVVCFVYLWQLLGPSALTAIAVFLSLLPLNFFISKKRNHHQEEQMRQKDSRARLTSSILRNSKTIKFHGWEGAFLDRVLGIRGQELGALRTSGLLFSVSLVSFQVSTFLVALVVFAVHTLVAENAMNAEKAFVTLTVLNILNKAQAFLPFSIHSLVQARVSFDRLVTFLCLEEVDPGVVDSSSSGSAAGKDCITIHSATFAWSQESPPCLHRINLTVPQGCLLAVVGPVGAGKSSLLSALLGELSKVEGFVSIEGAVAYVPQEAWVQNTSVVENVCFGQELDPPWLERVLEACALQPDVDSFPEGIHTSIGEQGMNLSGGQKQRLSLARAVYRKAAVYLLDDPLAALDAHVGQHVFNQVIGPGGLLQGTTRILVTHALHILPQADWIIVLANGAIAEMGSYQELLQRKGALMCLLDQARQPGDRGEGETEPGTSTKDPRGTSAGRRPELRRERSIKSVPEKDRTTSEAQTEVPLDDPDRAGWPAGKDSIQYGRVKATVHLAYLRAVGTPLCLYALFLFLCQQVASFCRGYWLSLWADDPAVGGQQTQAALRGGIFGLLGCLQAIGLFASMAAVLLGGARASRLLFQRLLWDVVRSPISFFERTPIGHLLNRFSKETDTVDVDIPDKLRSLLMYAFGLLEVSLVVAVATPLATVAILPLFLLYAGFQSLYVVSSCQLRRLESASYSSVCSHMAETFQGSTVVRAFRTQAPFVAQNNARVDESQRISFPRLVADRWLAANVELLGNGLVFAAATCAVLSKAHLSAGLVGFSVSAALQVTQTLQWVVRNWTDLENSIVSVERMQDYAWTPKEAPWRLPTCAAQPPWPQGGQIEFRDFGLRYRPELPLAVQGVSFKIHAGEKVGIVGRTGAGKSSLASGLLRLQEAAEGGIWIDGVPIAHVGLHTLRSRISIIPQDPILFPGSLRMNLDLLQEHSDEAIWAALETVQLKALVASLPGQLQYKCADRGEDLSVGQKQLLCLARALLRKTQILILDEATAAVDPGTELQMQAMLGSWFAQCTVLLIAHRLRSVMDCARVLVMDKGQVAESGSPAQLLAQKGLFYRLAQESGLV
pEC50: −log10 of the molar value.
PARAMETER: pEC50

# annotated cases, reported pEC50 shown
{"COMPOUND": "Cc1nc(C2CC2)c(C(F)(F)F)cc1Oc1nc(-c2cncc(C#N)c2)ccc1NS(C)(=O)=O [Compound I-184]", "pEC50": "> 6.00"}
{"COMPOUND": "Cc1cc(C)c(Oc2nc(-c3cncc(Cl)c3)ccc2N(C)S(=O)(=O)c2cnn(C)c2)c(C2CC2)c1 [Compound I-52]", "pEC50": "> 6.00"}
{"COMPOUND": "Cc1cc(C)c(Oc2nc(-c3cncc(Cl)c3)ccc2S(=O)(=O)N(C)Cc2ccccc2)c(C)c1 [Compound I-85]", "pEC50": "≤ 4.60"}
{"COMPOUND": "Cc1cc(C)c(Oc2nc(-c3cncc(Cl)c3)cnc2S(N)(=O)=O)c(C)c1Cl [Compound I-90]", "pEC50": "> 6.00"}
{"COMPOUND": "Cc1cc(C(F)F)nc(C2CC2)c1Oc1nc(-c2cncc(C#N)c2)ccc1S(=O)(=O)NC1CC1 [Compound I-288]", "pEC50": "> 6.00"}
{"COMPOUND": "Cc1cc(C2CC2)nc(C2CC2)c1Oc1nc(-c2cncc(C#N)c2)ccc1NS(C)(=O)=O [Compound I-161]", "pEC50": "> 6.00"}
{"COMPOUND": "Cc1cc(C)c(Oc2nc(-c3cn[nH]c3)ccc2NS(C)(=O)=O)c(C2CC2)c1 [Compound I-2]", "pEC50": "4.60 to 5.00"}
{"COMPOUND": "Cc1cc(C(F)F)nc(C)c1Oc1nc(-c2cncc(C#N)c2)ccc1NS(=O)(=O)C1CC1 [Compound I-199]", "pEC50": "5.00 to 6.00"}
{"COMPOUND": "Cc1cc(C)c(Oc2nc(N3CCC4(CN(C(=O)C5CC5)C4)C3)ccc2NS(C)(=O)=O)c(C)c1 [Compound I-25]", "pEC50": "5.00 to 6.00"}
{"COMPOUND": "Cc1cc(C)c(Oc2nc(-c3cn(C)nc3C)ccc2NS(C)(=O)=O)c(C)c1 [Compound I-283]", "pEC50": "> 6.00"}

// field: pEC50; key: Cc1cc(C)c(Oc2nc(-c3cncc(C(C)(C)O)c3)ccc2NS(C)(=O)=O)c(C)n1 [Compound I-220] ; value = ≤ 4.60

The reported value for Cc1cc(C2CC2)nc(C)c1Oc1nc(N2CCN(C(=O)C3CC3)CC2)ccc1NS(C)(=O)=O [Compound I-28] in terms of pEC50 is ≤ 4.60

Value of pEC50 reported for the compound Cc1cc(C)c(Oc2nc(-c3cncc(Cl)c3)ccc2S(=O)(=O)NC(c2ccccn2)C(F)(F)F)c(C)c1 (single isomer, unassigned) [Compound I-79] is 5.00 to 6.00

// recorded pEC50 for Cc1nc(Oc2nc(-c3cncc(C#N)c3)ccc2NS(C)(=O)=O)c(C2CC2)s1 [Compound I-300] : > 6.00

Consider Cc1cc(C)c(Oc2nc(-c3cncc(C#N)c3)ccc2NS(C)(=O)=O)c(C)c1 [Compound I-39] . Its measured pEC50 is > 6.00
